Assay System: T1, APBA2_1, Q99767
T1 sequence (Q99767 563-664, limits assumed, looked up): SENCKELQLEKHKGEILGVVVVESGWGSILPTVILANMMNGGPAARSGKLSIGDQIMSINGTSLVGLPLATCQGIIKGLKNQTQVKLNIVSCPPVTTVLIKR
Experiment Summary: holdup assay
Parameters: key: below the threshold = too weak to quantify, mostly under pKd 3.1 to 4
Experimental Parameters: plain residues with an end cap or a label only (N-terminal biotin on a linker: ado-ado)
Measured Attribute: pKd

Study these solved cases before continuing.
1) RDPPAEWTRV [PTPN18, Q99952]	below the threshold
2) KRPEMTSSSV [MUC3A, MUC3B, Q02505;Q9H195]	below the threshold
3) PYSESDDDWC [CACNA1A, O00555]	below the threshold
4) SLNANEVEWF [RNF130, Q86XS8]	3.61
5) KKMLQRRTLL [OR8G1, Q15617]	below the threshold

Next binder, please.
Any idea what pKd was measured for QSGLYESEEL [MYOT, Q9UBF9] ?
below the threshold
